tested on: Staphylococcus aureus (ATCC 29213); type: cell-based; conditions: ATCC 29213, 18 h
Non-standard residues stand in square brackets, D forms with d. Residues, ends and D or L forms follow the SMILES beside them. d1Nal = N[C@H](Cc1cccc2ccccc12)C(=O)O; dNle = CCCC[C@@H](N)C(=O)O
Readout: MIC SA (µg/mL)
Value expressed in µg/mL; do not type the unit.

Exercise: Any idea what MIC SA was measured for CCCC[C@@H](NC(=O)[C@@H](CCCCN)NC(=O)[C@@H](Cc1cccc2ccccc12)NC(=O)[C@@H](CCCCN)NC(=O)[C@@H](Cc1ccccc1)NC(=O)[C@@H](Cc1cccc2ccccc12)NC(=O)[C@@H](CCCCN)NC(=O)[C@H](N)CCCCN)C(N)=O [D2D] (H-[dK][dK][d1Nal][dF][dK][d1Nal][dK][dNle]-NH2) ?
Solution: 4
